System: MS2 coat protein
protocolDetails: apparent KD of MS2 coat protein; designed switch direction (-1 OFF switch, 1 ON switch): -1; higher = weaker reporter binding
experimentalSetup: input ligand: FMN 200 uM
Decide using apparent KD of MS2 coat protein: a value greater than or equal to 0.1 µM is met, a smaller one is not met.

Answered examples (3):
>  <macromoleculeSequence>
AAAUUAGCAAGUAGAUCCGACAUGAGGAUCACCCAUGUAAUCUAAAAUUACGCUGCACGAAAGUGCGCUCGUCUUAG [Sensor-V1 #13] (Eterna round: R97, puzzle: Sensor, turn-off variant 1)

>  <testedTarget>
MS2 coat protein

>  <classAssignment>
met

$$$$
>  <macromoleculeSequence>
UUUUGAAAGUGAGGAUAUGACAUGAGGAUCACCCAUGUAAAGGGAGUUGACUAUAUAGAAAGAUAUCAGAAGGCACAAAUGUUU [JR_ExcNG2_Sub002] (Eterna round: R96, puzzle: Exclusion NG 2)

>  <testedTarget>
MS2 coat protein

>  <classAssignment>
met

$$$$
>  <macromoleculeSequence>
GUCAGCUCGUCAGGAUAUAUUAACAUGAGGAUCACCCAUGUAAGAUCAGGCUUCGGCCAAUGUUAAUAGAAGGGACGAGCUGAC [ENG2/12-B1] (Eterna round: R96, puzzle: Exclusion NG 2)

>  <testedTarget>
MS2 coat protein

>  <classAssignment>
met

$$$$

Assess whether reported apparent KD of MS2 coat protein for GAGUGAUAAGGAUAUACAUGAGGAUCACCCAUGUGCUUCAGCUAGGAGACUAGCAUUGGUAGAAGGUAUUACUC [Mod of lroppy 11 - Jieux - Exclusion 3] (Eterna round: R97, puzzle: Exclusion 3) sits at 0.1 µM or higher. not met

Assess whether reported apparent KD of MS2 coat protein for CACCCUUCAGGAUAUACAUGAGGAUCACCCAUGUGUUCCAGCUAGGAAACUAGCAAAUGUAGAAGGGAAGGGUG [Mat - Exclusion 3 - JL Mod - D5] (Eterna round: R97, puzzle: Exclusion 3) sits at 0.1 µM or higher. met

Assess whether reported apparent KD of MS2 coat protein for CUAAACGCAGGAUAUACAUGAGGAUCACCCAUGUUUGGCCAGUAAACAAGUCGUCUUAGUAGAAGGGCGUUUAG [Eternabot (Original) Solution 42] (Eterna round: R97, puzzle: Exclusion 3) sits at 0.1 µM or higher. met

----------
The reader will find reported apparent KD of MS2 coat protein values listed item by item below.
System: MS2 coat protein
protocolDetails: apparent KD of MS2 coat protein; designed switch direction (-1 OFF switch, 1 ON switch): 1; higher = weaker reporter binding
experimentalSetup: input ligand: FMN 200 uM
Dear colleague, please return just the value in µM, with no unit written.

Below: 3 sequences and their reported apparent KD of MS2 coat protein.
>  <macromoleculeSequence>
UCGGGCGUACUUGCUGACAUGAGGAUCACCCAUGUGAUUGGGCAGGAUAUGGUUCCGUUUCGGUUCCAGAAGGUCCUCGGUGCU [salish99_SSNG3_r04_315] (Eterna round: R96, puzzle: Same State NG 3)

>  <apparent KD of MS2 coat protein [µM]>
0.593

$$$$
>  <macromoleculeSequence>
GCGGUACCUAACAUGAGGAUCACCCAUGUUCCGGAAACGGCACAGGAUAUCUGUCCGAAAAGGUCAGAGAAGGGUGAAAACCGC [Fiskers NG3ss - 94] (Eterna round: R96, puzzle: Same State NG 3)

>  <apparent KD of MS2 coat protein [µM]>
0.489

$$$$
>  <macromoleculeSequence>
AUGAAGAACUAAGGAUAUUGAAUACAUAUGUUUAACAUGAGGAUCACCCAUGUGGGUUGCGGUAUCGAGAAGGUAGAAUAAUAG [Mat - same State NG 2 - JL mod - D92] (Eterna round: R96, puzzle: Same State NG 2)

>  <apparent KD of MS2 coat protein [µM]>
0.0957

$$$$

Proceeding to the next sequence to report its apparent KD of MS2 coat protein.
Just so you know, measured apparent KD of MS2 coat protein for GUUACAUGAGGAUCACCCAUGUAUGUGUGGGAGUAAGUGUCUUAGGAUAUCUAGUAUUUAAGUUAAGAGAAGGAAGAUUGUUGU [JMF's solution 62] (Eterna round: R96, puzzle: Same State NG 3) came out at 0.129

Values from the supplement of paper PMC9170038
